The values you see were collected from ChEMBL document CHEMBL1201862.

Below: a set of entries, each annotated with reported GI50.
Test system: IGROV-1
Assay Method Text: NCI tumour cell line growth inhibition, 48 h
The source made the active and inactive calls. No stated cut-off is given here; in the data, active = GI50 up to about 1.1 µM and inactive = higher.

The examples below pair each entry with its known result.
Compound	GI50
CCN1CCC(O)(c2ccc(OC)cc2)C(C(=O)c2ccc(OC)cc2)C1 (stereo unspecified)	> 100 µM (inactive)
CC(C)OP(=O)(OC(C)C)c1ccc2c(c1)OCCOCCOCCOCCO2	> 100 µM (inactive)
O=C1c2ccc(O)cc2C(=O)c2ccc(O)cc21	48.3 µM (inactive)
O=C(NCCCN1CCN(CCCNC(=O)c2cccc3ccccc23)CC1)c1cccc2ccccc12	78.3 µM (inactive)
COC1CC(OS(=O)(=O)c2ccc(C)cc2)C(OC(=O)c2ccccc2)C(C)O1 (stereo unspecified)	> 10 µM (inactive)
NNC(=S)N/N=C(/C(=O)Nc1cc(Cl)ccc1Cl)C1C(=O)Nc2ccccc2[S+]1[O-] (stereo unspecified)	> 100 µM (inactive)
O=C(/C=C/c1c(O)ccc2ccccc12)c1ccccc1	> 100 µM (inactive)
COc1ccc(N2C(=O)c3c4c(c5c([nH]c6ncccc65)c3C2=O)CCC(C(C)(C)C)C4)cc1 (stereo unspecified)	> 100 µM (inactive)
C=C(CN(C)C)C1(c2ccccc2)CC2(CCCC2)C(=O)O1 (stereo unspecified)	> 100 µM (inactive)
NC(=O)c1cc(-c2ccc(-n3ccnc3)cc2)nnc1O	> 100 µM (inactive)

Form: Entry = CC(C)=CCc1ccc2[nH]c3c(c2c1)C(=O)C(=O)C(C)=C3C(O)C(C)O (stereo unspecified) | System = IGROV-1 | GI50 = ____
2.36 µM (inactive)

API: value(readout= GI50, system= IGROV-1, query= O=C(O)CN1CCNCCN(CC(=O)O)CCNCC1 )
24.3 µM (inactive)

Item: CC(=O)NC1(C)CCC(C(C)(C)NC(C)=O)CC1 (stereo unspecified) Test system: IGROV-1 Read-out: GI50 Value: ?
> 100 µM (inactive)

Report GI50 for CC1=Nc2nc3ccccc3n2C(C)(C)C1 tested on IGROV-1.
> 100 µM (inactive)

Entry CCN(CC)CCc1c2c(nc3ccccc13)C(=O)c1cccnc1C2=O , system IGROV-1: what GI50 was measured?
1.74 µM (inactive)

Fill in the recorded GI50 for this compound, with IGROV-1 as test system: C[N+](C)(C)CC(=O)N/N=C\c1c(O)ccc2ccccc12
20 µM (inactive)

Write down the reported GI50 of CC(=O)OCc1cc(CCC(=O)NCCNc2c3ccccc3nc3ccccc23)cc(COC(C)=O)c1O[Si](C)(C)C(C)(C)C , test system: IGROV-1.
10.4 µM (inactive)

Request: GI50, test system IGROV-1, entry COc1ccc(Nc2nc3ccccc3nc2-c2cccs2)cc1
> 100 µM (inactive)

Give IGROV-1 GI50 for O=C(OC1=CCN(Br)C1=O)C1=C(O)C(=O)N(Br)C1
39.1 µM (inactive)

Identify the measured GI50 of COc1ccc2nc3cc([N+](=O)[O-])ccc3c(NNc3ccccc3)c2c1 for IGROV-1.
2.93 µM (inactive)

For the record Nc1nc(Cl)c(C=O)c(NCC2(CO)CCC2)n1 , what value of GI50 is listed for IGROV-1?
12.3 µM (inactive)

Which measured GI50 belongs to Cc1cc2c(c(N)c1C)C(=O)c1ccccc1C2=O , tested on IGROV-1?
12.6 µM (inactive)

Give IGROV-1 GI50 for COc1cccc(C2SC(=N)Nc3c2c(C)nn3C(=O)Cc2ccccc2)c1 (stereo unspecified)
> 100 µM (inactive)

Recall the recorded GI50 for COc1cccc(C2SCC(=O)N2c2ccc(-n3c(-c4ccccc4)nc4ccccc4c3=O)cc2)c1OC (stereo unspecified) with IGROV-1 and state it.
> 100 µM (inactive)

Record lookup: for IGROV-1, what GI50 belongs to COc1ccc2cc(/C=N\NC(=O)Nc3cccc4ccccc34)ccc2c1 ?
66.1 µM (inactive)

Any idea what GI50 came out for Cc1nc2c(o1)C(=O)c1ccccc1/C2=N/c1ccc(N2CCOCC2)cc1 on IGROV-1?
8.71 µM (inactive)
